// provenance: patent US20210238162A1

target: haematopoietic prostaglandin D synthase (H-PGDS) (Homo sapiens); construct: Full length human H-PGDS cDNA (Invitrogen Ultimate ORF IOH13026) was amplified by PCR; made in house; host or cells: E. coli BL21 (DE3*), vector pET22b+; assay: H-PGDS RapidFire High Throughput Mass Spectrometry Assay; type: biochemical; details: H-PGDS RapidFire MS assay, mean pIC50; read-out: Potency Range (mean pIC50) (converted)

| compound | IC50 |
| --- | --- |
| CC(C)Oc1ccc2cc(C(=O)NC3CCN(c4nnnn4C)CC3)cnc2c1 | 100 to 1000 nM |
| CC(F)(F)c1cc2ncc(C(=O)N[C@H]3CC[C@H](C(C)(C)O)CC3)cc2cc1Cl | < 10 nM |
| COc1cc2ncc(C(=O)NC3CCN(c4nnnn4C)CC3)cc2cc1F | 100 to 1000 nM |
| CC(C)C(O)CO[C@H]1CC[C@H](NC(=O)c2cnc3cc(OC(F)F)c(Cl)cc3c2)CC1 (some centres unmarked) | < 10 nM |
| CC(C)(O)[C@H]1CC[C@H](NC(=O)c2cnc3c(Cl)c(OC(F)F)c(Cl)cc3c2)CC1 | < 10 nM |
| C[C@H]1CCN1c1cc2ncc(C(=O)N[C@H]3CCNC3=O)cc2cc1F | 10 to 79.4 nM |
| CO[C@H]1CC[C@H](NC(=O)c2cnc3cc(OC(F)F)c(F)cc3c2)CC1 | 10 to 79.4 nM |
| CC(C)(O)[C@H]1C[C@H](NC(=O)c2cnc3cc(OC(F)F)ccc3c2)C1 | 10 to 79.4 nM |

---

Reported IC50 values are given for each entry in this list.
target: haematopoietic prostaglandin D synthase (H-PGDS) (Homo sapiens, UniProt O60760); construct: Full length human H-PGDS cDNA (Invitrogen Ultimate ORF IOH13026) was amplified by PCR; made in house; host or cells: E. coli BL21 (DE3*), vector pET22b+; test: H-PGDS RapidFire High Throughput Mass Spectrometry Assay; assay type: biochemical; conditions: H-PGDS RapidFire MS assay, mean pIC50; read-out: Potency Range (mean pIC50) (converted)
Sequence (O60760 whole entry): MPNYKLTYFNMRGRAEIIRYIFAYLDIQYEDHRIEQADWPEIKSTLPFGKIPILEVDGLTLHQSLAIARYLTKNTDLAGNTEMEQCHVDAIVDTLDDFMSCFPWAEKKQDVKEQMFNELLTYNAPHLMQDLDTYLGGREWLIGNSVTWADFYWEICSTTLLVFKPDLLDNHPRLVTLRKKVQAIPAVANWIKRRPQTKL

| compound | IC50 |
| --- | --- |
| CC(C)(O)[C@H]1CC[C@H](NC(=O)c2cnc3cc4c(cc3c2)OCO4)CC1 | 0.1 to 1 µM |
| COc1ccc2cc(C(=O)NC3CCN(c4nnnn4C)CC3)cnc2c1OC | 0.01 to 0.0794 µM |
| CC(C)(O)[C@H]1CC[C@H](NC(=O)c2cnc3cc(OC(F)F)c(Cl)cc3c2)CC1 | < 0.01 µM |
| CC1(O)CCC(NC(=O)c2cnc3cc(OC(F)F)c(Cl)cc3c2)C1 (stereo not shown) | 0.01 to 0.0794 µM |

---

Below, each of the molecules is paired with its reported IC50 value.
target: haematopoietic prostaglandin D synthase (H-PGDS) (Homo sapiens, UniProt O60760); construct: Full length human H-PGDS cDNA (Invitrogen Ultimate ORF IOH13026) was amplified by PCR; made in house; host or cells: E. coli BL21 (DE3*), vector pET22b+; assay: H-PGDS RapidFire High Throughput Mass Spectrometry Assay; type: biochemical; conditions: in at least one experimental run; read-out: H-PGDS pIC50 value (converted)
Structures can show the parent of a compound that is named as a salt.
measured_quantity: IC50 (µM)

| molecule | measured_value |
| --- | --- |
| O=C(N[C@H]1CCCNC1=O)c1cnc2cc(C3CC3)c(Cl)cc2c1 [Example 36, hydrochloride] | 0.0158 |
| CC(C)(O)[C@H]1CC[C@H](NC(=O)c2cnc3cc(C4CC4(F)F)c(Cl)cc3c2)CC1 (some centres unmarked) | 0.0631 |
| O=C(N[C@H]1CC[C@H]([C@@H](O)C(F)(F)F)CC1)c1cnc2cc(OC(F)F)ccc2c1 (single isomer, unassigned) | 0.00794 |
| COc1cc2ncc(C(=O)NC3CCN(c4nnnn4C)CC3)cc2cc1F | 0.126 |
| C[C@]1(O)C[C@@H](NC(=O)c2cnc3cc(OC(F)F)c(Cl)cc3c2)C1 | 0.02 |
| O=C1CC(NC(=O)c2cnc3cc(OC(F)F)c(Cl)cc3c2)C1 | 0.0398 |
| CC(C)(O)[C@H]1CC[C@H](NC(=O)c2cnc3cc(N4CC(F)(F)C4)c(F)cc3c2)CC1 | 0.02 |
| O=C(N[C@H]1C[C@H](NCC(F)(F)F)C1)c1cnc2cc(OC(F)F)c(F)cc2c1 | 0.0501 |
| CC(C)(O)[C@H]1CC[C@H](NC(=O)c2cnc3cc(F)ccc3c2)CC1 | 2 |
| CC(C)(O)[C@H]1CC[C@H](NC(=O)c2cnc3cc(Cl)ccc3c2)CC1 | 0.158 |
| CC1(F)CN(c2cc3ncc(C(=O)N[C@H]4CC[C@H](C(C)(C)O)CC4)cc3cc2F)C1 | 0.0631 |
